The compounds listed here are annotated with their IC50.
Molecular target: EGFR L858R+T790M, endogenous (NCI-H1975) (Homo sapiens, UniProt P00533, L858R/T790M)
Construct: NCI-H1975 (EGFR L858R+T790M, endogenous)
Sequence (P00533 25-1210 T790M/L858R): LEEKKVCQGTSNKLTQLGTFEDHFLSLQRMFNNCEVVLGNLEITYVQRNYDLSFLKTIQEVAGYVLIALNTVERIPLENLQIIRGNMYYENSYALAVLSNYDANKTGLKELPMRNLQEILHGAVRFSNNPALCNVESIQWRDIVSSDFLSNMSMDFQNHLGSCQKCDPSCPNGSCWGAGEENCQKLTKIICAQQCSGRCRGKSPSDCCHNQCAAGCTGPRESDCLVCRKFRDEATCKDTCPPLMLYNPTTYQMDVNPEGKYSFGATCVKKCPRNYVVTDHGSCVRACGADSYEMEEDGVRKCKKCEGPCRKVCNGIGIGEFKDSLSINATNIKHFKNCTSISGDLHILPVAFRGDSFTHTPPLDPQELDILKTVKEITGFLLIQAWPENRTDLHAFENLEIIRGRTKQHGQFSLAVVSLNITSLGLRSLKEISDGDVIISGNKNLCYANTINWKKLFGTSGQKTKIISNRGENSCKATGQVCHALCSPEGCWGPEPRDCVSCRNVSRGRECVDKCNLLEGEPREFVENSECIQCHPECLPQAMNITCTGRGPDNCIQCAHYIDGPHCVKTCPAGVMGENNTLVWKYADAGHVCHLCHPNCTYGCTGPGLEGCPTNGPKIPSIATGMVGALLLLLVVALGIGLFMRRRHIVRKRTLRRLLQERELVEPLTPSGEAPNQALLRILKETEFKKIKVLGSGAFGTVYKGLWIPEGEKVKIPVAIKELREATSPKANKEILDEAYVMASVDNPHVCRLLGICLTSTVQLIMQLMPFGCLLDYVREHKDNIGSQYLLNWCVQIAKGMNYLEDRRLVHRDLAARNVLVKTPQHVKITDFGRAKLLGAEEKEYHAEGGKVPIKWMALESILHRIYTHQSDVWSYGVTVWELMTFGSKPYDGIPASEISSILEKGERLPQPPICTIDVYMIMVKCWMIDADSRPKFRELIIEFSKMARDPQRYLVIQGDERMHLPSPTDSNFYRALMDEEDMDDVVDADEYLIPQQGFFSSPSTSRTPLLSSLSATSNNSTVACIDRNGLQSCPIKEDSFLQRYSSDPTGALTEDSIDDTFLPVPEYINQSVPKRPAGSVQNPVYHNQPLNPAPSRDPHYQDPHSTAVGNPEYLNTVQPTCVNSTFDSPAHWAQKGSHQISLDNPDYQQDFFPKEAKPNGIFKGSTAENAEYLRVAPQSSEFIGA
Assay: pEGFR Y1068 ELISA assay, NCI-H1975 cells
Conditions: inhibition of phosphorylation of EGFR at Tyr1068; NCI-H1975 NSCLC cells; 2 hr compound incubation

Solved entries (count: 3):
{"columns": ["Compound", "IC50"],
 "data": [
  ["C=CC(=O)NC1(C)CN(c2nc(Nc3cnn(C)c3)c3ncn(C(C)C)c3n2)C1 [Example 13]", "40 nM"],
  ["C=CC(=O)N[C@H]1CCN(c2nc(Nc3ccc(N4CCN(C)CC4)cc3)c3ncn(C(C)(C)C)c3n2)C1 [Example 9]", "32 nM"],
  ["C=CC(=O)N1C[C@H](Nc2nc(Nc3cnn(C)c3)c3ncn(C(C)C)c3n2)[C@@H](F)C1 (single isomer, unassigned) [Example 30]", "82 nM"]
]}

Value of IC50 reported for the compound C=CC(=O)N[C@@H]1CN(c2nc(Nc3cnn(C)c3)c3ncn(C(C)C)c3n2)C[C@@H]1OC (single isomer, unassigned) [Example 50] is 26 nM
